- tested_system: Carbonic anhydrase 4 (Bos taurus) (UniProt Q95323)
- Sequence (Q95323 whole entry): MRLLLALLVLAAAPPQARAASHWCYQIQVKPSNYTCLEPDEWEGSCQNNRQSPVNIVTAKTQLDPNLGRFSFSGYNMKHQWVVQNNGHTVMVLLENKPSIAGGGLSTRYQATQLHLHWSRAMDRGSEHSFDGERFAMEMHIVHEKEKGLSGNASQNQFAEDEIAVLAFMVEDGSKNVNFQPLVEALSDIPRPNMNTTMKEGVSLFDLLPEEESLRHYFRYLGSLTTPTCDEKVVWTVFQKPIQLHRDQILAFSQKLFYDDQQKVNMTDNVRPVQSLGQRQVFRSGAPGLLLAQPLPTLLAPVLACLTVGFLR
- method_description: In vitro carbonic anhydrase IV activation in bovine lung microsomes.
- measurement_setup: Microsome
endpoint: KA (µM)

query: # query: KA of entry O=C(CNC(=O)NS(=O)(=O)c1ccc(F)cc1)NCCC(=O)N[C@@H](Cc1c[nH]cn1)C(=O)O
result: 2.1

query: What do you get for Cc1ccccc1S(=O)(=O)NC(=O)N[C@@H](C)C(=O)NCCC(=O)N[C@@H](Cc1c[nH]cn1)C(=O)O ?
result: 2.3

query: What about Cc1ccccc1S(=O)(=O)NC(=O)N[C@@H](Cc1c[nH]c2ccccc12)C(=O)NCCC(=O)N[C@@H](Cc1c[nH]cn1)C(=O)O ?
result: 3.7

query: Again, but for O=C(CCCNC(=O)NS(=O)(=O)c1ccc(F)cc1)NCCC(=O)N[C@H](Cc1c[nH]cn1)C(=O)O
result: 3.2

query: // next record Cc1ccccc1S(=O)(=O)NC(=O)N1CCCC[C@@H]1C(=O)NCCC(=O)NC(Cc1c[nH]cn1)C(=O)O (some centres not stated)
result: 2.9

(1) Cc1ccccc1S(=O)(=O)NC(=O)NCCC(=O)NCCC(=O)N[C@@H](Cc1c[nH]cn1)C(=O)O
(2) Cc1ccccc1S(=O)(=O)NC(=O)NCCC(=O)N[C@@H](Cc1c[nH]cn1)C(=O)NCCC(=O)N[C@@H](Cc1c[nH]cn1)C(=O)O
query: // returns 1 or 2 , whichever has the lower KA Please indicate the selected item by its label.
result: 2

----------
- tested_system: Carbonic anhydrase 4 (Bos taurus) (UniProt Q95323)
- method_description: In vitro carbonic anhydrase IV activation in bovine lung microsomes.
- measurement_setup: Microsome
endpoint: KA (µM)

// below: answered compounds
query: Please report the recorded KA for Cc1ccccc1S(=O)(=O)NC(=O)NCC(=O)N[C@@H](Cc1c[nH]cn1)C(=O)NCCC(=O)N[C@@H](Cc1c[nH]cn1)C(=O)O .
result: 0.01

query: O=C(CCNC(=O)[C@H](Cc1c[nH]c2ccccc12)NC(=O)NS(=O)(=O)c1ccc(F)cc1)N[C@@H](Cc1c[nH]cn1)C(=O)O ?
result: 3.2

query: # iterate: O=C(CCNC(=O)[C@H]1CCCN1C(=O)NS(=O)(=O)c1ccc(F)cc1)NC(Cc1c[nH]cn1)C(=O)O (some centres undefined)
result: 3.6

query: Can you check Cc1ccccc1S(=O)(=O)NC(=O)N1CCC(C(=O)NCCC(=O)NC(Cc2c[nH]cn2)C(=O)O)CC1 (centres undefined) next?
result: 3.1

(I) Cc1ccccc1S(=O)(=O)NC(=O)N[C@@H](CC(C)C)C(=O)NCCC(=O)N[C@@H](Cc1c[nH]cn1)C(=O)O
(II) CC(C)[C@H](NC(=O)NS(=O)(=O)c1ccc(F)cc1)C(=O)NCCC(=O)N[C@@H](Cc1c[nH]cn1)C(=O)O
(III) Cc1ccccc1S(=O)(=O)NC(=O)N[C@@H](CCCCN)C(=O)NCCC(=O)N[C@@H](Cc1c[nH]cn1)C(=O)O
query: List these items ordered by KA, big to small. Reply: labels, ordered per the request.
result: I, II, III

(1) Cc1ccccc1S(=O)(=O)NC(=O)NCCCC(=O)NCCC(=O)N[C@@H](Cc1c[nH]cn1)C(=O)O
(2) Cc1ccccc1S(=O)(=O)NC(=O)N1CCC[C@@H]1C(=O)NCCC(=O)NC(Cc1c[nH]cn1)C(=O)O (some centres undefined)
query: Select the item whose KA value is smaller, choosing between 1 and 2 . Returns: label corresponding to the selected item.
result: 1
